set-up: species or system humans; conditions: human, in vivo, po, 480 min
Where a name gives a salt, the structure may show the parent alone.
Below: a set of entries, each annotated with reported Percent urinary recovery (Hour 0 to Hour 8).
Provide a numeric answer, followed by its unit.

*Q* State the recorded Percent urinary recovery (Hour 0 to Hour 8) for this entry: Cn1nnnc1SCC1=C(C(=O)OCOC(=O)C(C)(C)C)N2C(=O)C(NC(=O)[C@H](OC(=O)CN)c3ccccc3)C2SC1 (stereo partly shown) [Example 1, hydrochloride]
*A* 38.0%

*Q* State the recorded Percent urinary recovery (Hour 0 to Hour 8) for this entry: CCOC(=O)OC(C)OC(=O)C1=C(CSc2nncs2)CSC2C(NC(=O)[C@H](OC(=O)[C@H](C)N)c3ccccc3)C(=O)N12 (stereo partly shown) [Example 3]
*A* 37.0%

*Q* State the recorded Percent urinary recovery (Hour 0 to Hour 8) for this entry: Cc1nnc(SCC2=C(C(=O)OCOC(=O)C(C)(C)C)N3C(=O)C(NC(=O)[C@H](OC(=O)[C@@H](N)C(C)C)c4ccccc4)C3SC2)s1 (stereo partly shown) [Example 6, hydrochloride]
*A* 36.0%

*Q* State the recorded Percent urinary recovery (Hour 0 to Hour 8) for this entry: CC(=O)OC(C)OC(=O)C1=C(CSc2nnc(C)s2)CSC2C(NC(=O)[C@H](OC(=O)[C@@H]3CCCN3)c3ccccc3)C(=O)N12 (stereo partly shown) [Example 17, hydrochloride]
*A* 40.9%

The reported numbers originate from patent US4605651A.
